B1: PI4K2A (parent)
chain: FVKDPQGRIIAVFKPKNEEPYGHL

# Variants of: B1
# experiment-description: protein stability index of a GFP-peptide fusion (GPS, HEK-293T) (PSI 1-6); higher = more stable;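 also: lentivirally expressed fusions sorted by FACS into six bins by GFP to DsRed ratio, PSI derived from sequencing read proportions per bin multiplied by bin number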
# test-context: c terminus: a fixed tail appended
Consider the following variants; for each one, report its protein stability index.
Reply with the value as a number alone.

For reference, reported protein stability index for L24V stands at 2.19

Documented protein stability index of F1P : 4.09

Entry A11F , protein stability index reported as 2.49

Quick note, protein stability index for F13N landed at 1.99

Just so you know, measured protein stability index for V2M came out at 2.42

protein stability index in this record for V2P : 2.13

Entry E19H ; protein stability index = 2.1

Item: P15Y | protein stability index: 2.4
